tested on: MCF7 breast; test: NCI-60 one-dose screen, 48 h (100 = growth as untreated, 0 = no growth, -100 = all killed); settings: 10 µM unless noted
About 83,000 compounds went through this panel and 20% of them were active in at least one assay; those are over-represented in the sample as a whole.
Please map values of growth to classes as shown: one: < 20%; two: ≥ 20% and < 90%; three: ≥ 90%

>  <compound>
Cc1ccc(-c2[nH][nH]c(=O)c2-c2nc3ccccc3s2)cc1

>  <class>
three

$$$$
>  <compound>
NCCCCCCNc1cc(-c2cccc(OC(F)(F)F)c2)nc2ccc(N3CCCC3)cc12

>  <class>
one

$$$$
>  <compound>
O=C1OC(Cc2ccccc2)C1c1ccccc1 (stereo not given)

>  <class>
three

$$$$
>  <compound>
CCOC(=O)c1ccc2c(c1)ncn2-c1ccc(NC(=O)Nc2cccc(C)c2)cc1

>  <class>
two

$$$$
>  <compound>
CCN(CC)CCCC(C)Nc1cc(O)cc2cccnc12 (stereo not given)

>  <class>
three

$$$$
>  <compound>
CCCCC/C=C/C(C)=C/C1CC(C)C/C=C/CCC(O)C(OC(N)=O)CCC(C)CC(O)C(C)C(=O)O1 (stereo not given)

>  <class>
two

$$$$
>  <compound>
O=C(NO)c1ccc(-n2nc(-c3ccccc3)c3ccccc32)cc1

>  <class>
two

$$$$
>  <compound>
COc1ccc(-c2nc(S(=O)(=O)c3ccccc3)c(S(=O)CC(=O)N3CCC(C)CC3)o2)cc1 (stereo not given)

>  <class>
two

$$$$
>  <compound>
COc1ccc(CNCCN2C(=O)c3ccc4c5c(ccc(c35)C2=O)C(=O)N(CCNCc2ccc(OC)c(OC)c2OC)C4=O)c(OC)c1OC

>  <class>
one

$$$$
>  <compound>
COc1cc(-c2csc(NC(=O)c3cc(F)cc(C(F)(F)F)c3)n2)cc(OC)c1OC

>  <class>
two

$$$$
>  <compound>
COc1cc2nc(-c3ccc(Cl)cc3)cc(OCCCN3CCCC3)c2cc1OC

>  <class>
two

$$$$
>  <compound>
Cc1ccc(-n2nc3c(c(C#N)c2=O)CC(c2ccccc2[N+](=O)[O-])C([N+](=O)[O-])=C3O)cc1 (stereo not given)

>  <class>
two

$$$$
>  <compound>
O=C1C=CC(=O)N1c1cccc(Cl)c1

>  <class>
three

$$$$
>  <compound>
CCN(CC)c1ccc(/C=N/NC(=O)CSc2nc3ccccc3c(=O)n2CCc2ccc(S(N)(=O)=O)cc2)c(O)c1

>  <class>
one

$$$$
>  <compound>
O=C(O)c1ccc(-c2nn(-c3ccc(C(F)(F)F)cc3)cc2CNc2ccc(Oc3ccccc3)cc2)cc1

>  <class>
two

$$$$
>  <compound>
CCOC(=O)CSc1nc2ccccc2c(=O)n1Cc1ccc(S(N)(=O)=O)cc1

>  <class>
three

$$$$
>  <compound>
O=C(CSc1nc2ccccc2[nH]1)NCc1ccccc1

>  <class>
three

$$$$
>  <compound>
O=C1Nc2cc(-c3ccc(NC(=O)c4ccccc4)cc3)ccc2/C1=C/c1ccc[nH]1

>  <class>
one

$$$$
>  <compound>
CCC(=O)Oc1ccc(/C(=C(\C)c2ccccc2)c2ccc(OCCN3CCCCC3)cc2)cc1

>  <class>
two

$$$$
